Below is a list of entries, each paired with its recorded pIC50 value.
# target-of-assay: IDO1 (Homo sapiens)
# Sequence (P14902 whole entry): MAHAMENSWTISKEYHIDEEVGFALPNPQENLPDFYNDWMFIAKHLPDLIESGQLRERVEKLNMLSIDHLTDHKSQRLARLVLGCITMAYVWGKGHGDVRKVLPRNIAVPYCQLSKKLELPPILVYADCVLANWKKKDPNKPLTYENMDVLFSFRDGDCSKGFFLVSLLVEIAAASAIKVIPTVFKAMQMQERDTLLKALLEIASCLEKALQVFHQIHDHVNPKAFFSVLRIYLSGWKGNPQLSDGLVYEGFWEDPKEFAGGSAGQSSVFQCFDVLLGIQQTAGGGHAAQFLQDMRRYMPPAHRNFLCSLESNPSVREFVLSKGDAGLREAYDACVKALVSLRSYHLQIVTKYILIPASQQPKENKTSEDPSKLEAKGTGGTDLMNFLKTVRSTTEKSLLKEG
# experiment-notes: IDO1 Cellular Assay in HeLa Cells Stimulated with IFNγ
# Assay type: cell-based
# condition-parameters: read-out: HeLa Cell Potency, IC50
The scale used: pIC50 is minus the common logarithm of the concentration in molar units.

compound: Cc1ccccc1N1CCN(C(=O)Cn2nc(C(=O)N3C[C@@H](C)O[C@@H](C)C3)c3c2CCC3)CC1
target-of-assay: IDO1 (Homo sapiens)
pIC50: 7.29

compound: Cc1c(C(F)F)cccc1N1CCN(C(=O)Cn2nc(C(=O)N3CCC(O)CC3)c3c2C[C@H]2C[C@@H]32)CC1
target-of-assay: IDO1 (Homo sapiens)
pIC50: 9.07

compound: C[C@@H]1CN(C(=O)c2nn(CC(=O)N3CCN(c4ccc(F)c(C(F)F)c4)CC3)c3c2CCC3)C[C@H](C)O1
target-of-assay: IDO1 (Homo sapiens)
pIC50: 6.35

compound: Cc1cccc(N2CCN(C(=O)Cn3nc(C(=O)N4CC[C@H](O)[C@@H](F)C4)c4c3CC(O)C4)CC2)c1C (single isomer, unassigned) [Example 416]
target-of-assay: IDO1 (Homo sapiens)
pIC50: 7.12

Answer with reported pIC50 of `Cc1c(F)ccc(N2CCN(C(=O)Cn3nc(C(=O)N4C[C@@H](C)O[C@@H](C)C4)c4c3CCC4)CC2)c1C`
8.53

Answer with reported pIC50 of `Cc1cccc(N2CCN(C(=O)Cn3nc(C(=O)N4CC[C@H](CO)C4)c4c3CCC4)CC2)c1C`
8.25

Answer with reported pIC50 of `Cc1cccc(N2CCN(C(=O)Cn3nc(C(=O)N4C[C@H](O)C[C@H]4C)c4c3C[C@H]3C[C@@H]43)CC2)c1C`
8.43

Answer with reported pIC50 of Cc1c(Cl)cccc1N1CCN(C(=O)Cn2nc(C(=O)N3CC[C@H](O)[C@H](F)C3)c3c2CCC(F)C3)CC1 (stereo partly drawn) [Example 374]
8.29

Answer with reported pIC50 of `Cc1c(Cl)cccc1N1CCN(C(=O)Cn2nc(C(=O)N3CCC(OCCO)CC3)c3c2C[C@H]2C[C@@H]32)C2(CC2)C1`
8.76

From: patent US12264134B2
